# System: NCI/ADR-RES ovarian
# protocolDescription: NCI-60 one-dose screen, 48 h
# recordedConditions: 10 µM
About 83,000 compounds went through this panel and 20% of them were active in at least one assay; those are over-represented in the sample as a whole. The source made the active and inactive calls. The calls were made as follows: active = growth percent below 10; inactive = the rest.
Permitted responses: active, inactive

compound: O=C(COc1cccc(/C=C2\CSc3ccc(Cl)cc3C2=O)c1)c1ccc(Cl)cc1
labelValue: inactive
--
compound: O=C(Nc1ccc(F)cc1)c1cc2ccccc2cc1O
labelValue: inactive
--
compound: Cc1cn(-c2cc(F)cc(NC(=O)c3ccc(C)c(Nc4nccc(-c5cccnc5)n4)c3)c2)cn1
labelValue: inactive
--
compound: O=C(CSc1nnc(-c2cccnc2SCc2ccccc2)o1)Nc1nc(Cl)cc(Cl)n1
labelValue: inactive
--
compound: O=C(Nc1ccc(OCc2nnc(-c3ccc(Cl)cc3)o2)c(F)c1)Nc1ccc(Cl)c(C(F)(F)F)c1
labelValue: active

# input Kindly provide the recorded test outcome for the following compound: `COc1ccc(CCN2CCC(Nc3nc4ccccc4n3Cc3ccc(F)cc3)CC2)cc1`
# output inactive

# input Also `COC(=O)CC[C@@H](C)[C@H]1CC[C@H]2[C@@H]3CC[C@@H]4C[C@H](O)CC[C@]4(C)[C@H]3C[C@H](O)[C@]12C` , if possible.
# output inactive

# input Same read-out for CC(C)=CCC/C(C)=C/CC/C(C)=C/CC/C=C(\C)CC/C=C(\C)CCC(=O)Nc1ccn(C2OC(CO)C(O)C2(F)F)c(=O)n1 (stereo unspecified) ?
# output inactive

# input Likewise for `COc1cc(-c2nn(-c3cccc(NC(=O)CN4CCOCC4)c3)cc2-c2cccnc2)ccc1Cl` ?
# output inactive

# input Try this compound too: `NC1=CC(=O)C(=O)c2cccnc21`
# output inactive

# input Subsequent entry: `Cc1cn(-c2cccc(NC(=O)c3ccc(C)c(Nc4nccc(-c5cccnc5)n4)c3)c2)cn1`
# output active

# input Query `O=C(CCc1nnc2sc(-c3cc(O)c(O)c(O)c3)nn12)c1nc2ccccc2[nH]1` next
# output inactive

# input What about `CCn1c(SCCc2ccccc2)nnc1-c1nn(-c2ccc(Cl)cc2Cl)c(-c2ccc(Cl)cc2)c1C` ?
# output inactive

# input Do the same for `CCCc1cn(CC(=O)Nc2nc3ccccc3s2)nn1` please
# output inactive

# input How about this compound: `COc1ccccc1/C=N\N/C(N)=N\N=C\c1ccccc1OC`
# output inactive

# input And the next one, `C=CCNCCN1C(=O)c2ccc3c4c(ccc(c24)C1=O)C(=O)N(CCNCC=C)C3=O` ?
# output active

# input // query: O=C(CCC(C(=O)c1ccccc1)c1ccccc1)c1ccccc1 (stereo unspecified)
# output inactive

# input Thanks! And CCc1cc(Cl)c(OC)c(C(=O)NCC2CCCN2CC)c1O (stereo unspecified) ?
# output inactive

# input Moving on to the next compound: `CC(C)C[C@H](NC(=O)Cn1cccc(CNC(=O)c2ccccc2)c1=O)B(O)O`
# output inactive

# input Repeat with `COc1ccc(C(=O)CC(CC(=O)c2ccc(OC)cc2)c2c(C)nn(-c3ccccc3)c2Cl)cc1`
# output inactive

###

# System: T-47D breast
# protocolDescription: NCI-60 one-dose screen, 48 h (100 = growth as untreated, 0 = no growth, -100 = all killed)
# recordedConditions: 10 µM
This is part of a sample that, as a whole, favours compounds with a hit. Of some 83,000 tested, about 20% had one in any assay.
The following compounds are shown together with reported growth values.
Report the value in % with no unit label.

compound: O=C(O)Cc1ccc(O)c(O)c1
unitsLabel: %
growth: 83.2

# input May I ask what growth has been recorded for COC1OC(COS(=O)OC)C(O)C(O)C1OS(=O)OC (stereo not drawn) ?
# output 110

# input Request: CN(C)c1ncnc2c1nnn2C1OC(CO)C(O)C1O (stereo not drawn)
# output 10.5

# input Queued: N#CC1=CC2CN(Cc3ccccc3)C1C1C(=O)N(c3ccccc3)C(=O)C21 (stereo not drawn)
# output 99.5

# input Next entry: `O=C(/C=C/C=C/c1c(C2CC2)nc2ccccc2c1-c1ccc(F)cc1)c1cccs1`
# output 4.82
